Data provenance is the supplement of paper PMC10567573.

# assay comment: protein stability index of a GFP-peptide fusion (GPS, HEK-293T) (PSI 1-6); higher = more stable;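 also: 24-mer peptide tiles fused after GFP, lentivirally expressed, FACS-sorted into six equal bins by GFP/DsRed ratio, decoded by Illumina sequencing, PSI is the read-weighted mean bin number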
# assay context: treatment: MLN4924 1 uM, 8 h; c terminus: a fixed tail appended
assay metric: protein stability index

sequence record	assay metric	observed measurement
NGCEVKNRKSILSRHLNSQVKKTT [PHTF1]	protein stability index	4
STRLTRIHLREDLVQDQDLEAIRK [ZER1]	protein stability index	4.7
SNLSVENVADTLVLADLHSAEQLK [SPOPL]	protein stability index	4.61
LAFRSGSDNLLVILKRKWWKYILL [SLC35F2]	protein stability index	1.98
EMDKLRASDIMEPNLTYVYPHTRI [CLCN6]	protein stability index	2.92
PITAHAEVEVVEEAKCCCFFKRKR [CSNK1G1]	protein stability index	3.23
ARAEAEQMAKKAEAFQLYQEAAQL [FLOT1]	protein stability index	4.52
SRGYRNHRSSRETRDYAPPSRGHA [RBMY1A1]	protein stability index	4.63
SAFTAAHELGHVFNMLHDNSKPCI [ADAMTS4]	protein stability index	3
VQTGLDQYQQVPVEIVKSDFHKPF [IQUB]	protein stability index	3.52
SLNELMIVIGILSAYISNYAFANV [SLC2A12]	protein stability index	3.18
WYQPSFHGVDLSALRGAAVDEYFR [CARM1]	protein stability index	2.75
PTVTTSWQSESLPVSLSASQSWHT [BCL2L13]	protein stability index	3.12
VCGGAQRPGHLPGLLLGSHGLLGS [CDC25B]	protein stability index	3.24
FIICIVIAILLYKSKPDRKRAESD [PTPRD]	protein stability index	2.97
AAAAKAFKHPSIRNPVSLVVTRLV [ADAMTS4]	protein stability index	2.67
VTTTSSASVTTTSNASGRRTSDVR [KRT13]	protein stability index	5.24
GYTFGQDISETFNHANGLTLVSRA [PPP2CA]	protein stability index	3.19
HPVFYQGTYSQALNDAKRELRFLL [FAF2]	protein stability index	2.15
FAGSMFGSVALGPVCPTVCPPGGI [KRT71]	protein stability index	2.36
SQRQAKELKLEQQEAAERESKLLR [LRRC45]	protein stability index	5.22
FQEAAGPREALSRLQELCHGWLRP [ZNF263]	protein stability index	2.67
KQLNCVEISALNGNRINVPMVRKR [DLC1]	protein stability index	4.07
PQKLLGCSPALKRSHSDSLDHDIF [CDC25A]	protein stability index	3.24
KCKQVKEKCKEEFVEEIKKLATQH [ZMYND11]	protein stability index	4.14
VQRIMVANIEEVLQRGEALSALDS [SEC22B]	protein stability index	3.05
HASGDASYSAGDSGDAAAQPAFTG [EPB41L3]	protein stability index	5.21
PDGLMYQKFRNQFLSFSMYQSFVQ [TMEM120A]	protein stability index	2.33
LFVADAYKGLFEVNPWKREVKLLL [APMAP]	protein stability index	2.34

---

# assay comment: protein stability index of a GFP-peptide fusion (GPS, HEK-293T) (PSI 1-6); higher = more stable
# assay context: treatment: MLN4924 1 uM, 8 h; c terminus: a fixed tail appended
// map protein stability index onto a label; ranges I: < 3; II: ≥ 3 and < 4; III: ≥ 4

sequence record	label class
QRARKEREKEDYLHLKRQPKRRWL [RHOBTB2]	III
TVVGLFNVRDRDSGRNGEVSLDIS [PCDHGC5]	II
TLKRGYFQKSLVLISKLPYIHFFH [DENND6A]	I
SYSPASASSGGAGAAVGTGSSYPT [JUNB]	III
RHIHHLGNQLQLNQHCLDTAFNFF [BRF1]	I
KHAKKEREESLPNLLQYVRMPLLT [KLHL12]	II
IQELELQAQIHGLPVPPTPGLLSL [TFE3]	I
KQNKQVLGYCLLLMLAGMGLHYIA [DNAJC4]	I
ARIRDEEAQRASFLQNAVLAYVQA [LRRC45]	I
LDSDHRELIGDYSKAFLLQTVDGK [CDC25B]	II
NYVLEEVDEAAAESPSFLSLRKGA [NCK2]	III
PMQESKAEGNNQAPGEEEEEEEEA [CHGA]	III
RWSRVGGQRFYSRVLSPLHRGPSG	I
ELEKAHLALIDYLTQKRSQLVKKL [VPS39]	I
EPWLPLTDGRSPRRSRDPGYDHLW [PLEKHN1]	II
ESSVPSTVGCSSQHTPDQANSDRA [PLEKHN1]	III
MEPPGPVRGPLQDSSWYEPSAELV [ZNF232]	III
EHFGIVPLEAMYMQCPVIAVNSGG [ALG2]	I
LEISPDCSQYDRVYCGAGVQKEHE [PCMTD2]	III
FRADQRSGPRQLLTLYNPTGTALR [MOSPD3]	II
GEKPYKCTHCSKSFRQRAGLIMHQ [ZNF449]	II
ENEQRRLFIQKEEQLQQILKRKNK [MNAT1]	III
HLEDWLEKRAKRLSSAPSSRAEPI [ZMAT5]	II
FSTWNLDHIIEKKRTIIPTLVEAI [DFFB]	I
AKNQSDEAKEAKGSGYEKLGPSRD [RTP4]	III
TWAMRQRGTHAVVGVATADAPLHS [SPSB1]	I
ICQKTATKKRKTFDSSRQRAEGTD [ZC2HC1A]	III
TPIEVLCENFPEMATYLRYVRRLD [CSNK1G3]	I

---

# assay comment: protein stability index of a GFP-peptide fusion (GPS, HEK-293T) (PSI 1-6); higher = more stable
# assay context: treatment: MLN4924 1 uM, 8 h; c terminus: a fixed tail appended

sequence record	protein stability index
SKIPFKILSGHEHAVSTCHFCVDD [WDR88]	3.07
TLHAVEKLQVRLATKTEPKKLEKY [ELOA2]	3.73
TNTTSTQMTNIGVYVSNMTDKLVT [IQUB]	2.8
LLQGAGLDVERWLKPAMTQAQDEV [FCHSD1]	3.54
FRKVKQMHLNFMDEKDRIITAFYN [DNAJC4]	2.41
MPHSVTLRGPSPWGFRLVGGRDFS [PDLIM4]	2.8
ASTKMCEQALGKGCGADSKKKRPP [PLK2]	4.76
SREYKLVMLGAGGVGKSAMTMQFI [RIT1]	2.27
PSPGVLCGSARPKPYDPPGEKMVA [ATF4]	4.6

---

# assay comment: protein stability index of a GFP-peptide fusion (GPS, HEK-293T) (PSI 1-6); higher = more stable
# assay context: treatment: DMSO; c terminus: a fixed tail appended
Think of 5 as a floor: if protein stability index stands on it or above, it is rule met; beneath it, rule not met.

sequence record	label class
ISLRVYRKVLQAVHRGDGANPFQA [RTN2]	rule not met
TLKRGYFQKSLVLISKLPYIHFFH [DENND6A]	rule not met
VSREENREDKATIKCETSPPSSPR [PPFIA4]	rule met
TEHEKKQKLETDAMFRLEHGEADR [YJU2B]	rule met
AILQNHTDFKDKIVLDVGCGSGIL [CARM1]	rule not met
AESQGCNHEEDAGVRCNTPAMGLQ [LOXL2]	rule met

---

# assay comment: protein stability index of a GFP-peptide fusion (GPS, HEK-293T) (PSI 1-6); higher = more stable
# assay context: treatment: DMSO; c terminus: a fixed tail appended
# protein stability index >= 4 gives fulfilled, anything below gives not fulfilled

sequence record	label class
SSCVKYLIFLSNFPFSLLGLLALA [TSPAN10]	not fulfilled
LGAEIRNGMAIIRPPGHHAQHSLM [HDAC6]	not fulfilled
CDSTNAAIAKQALKKPIKGKQAPR [KMT5A]	fulfilled
TEDCPTGSALTFREEQCAAYNHRT [ADAMTS4]	fulfilled
PQEEIATKKLRLTKPSKSAALHID [INTS4]	fulfilled
CEKFLQEVDFFQRYFIADLPHLQD [INTS4]	not fulfilled
TLGELKQNLSRSWHDVQVSSAYVK [TPD52L2]	not fulfilled
DFWLNMAALTEALQRQAEQNPTAS [FCHO1]	not fulfilled
PADALQYLLQFARKPVEAESVEGV [INTS4]	not fulfilled
LVPDASKQRLMENTEDWRPRPGTG [PDLIM7]	fulfilled
PPGYSAWIKEEAAERYLYFPNWAM [SLC6A17]	not fulfilled
PGLLEEDNQWMTQINRLQKLIDRL [NECAB1]	not fulfilled
EFNELLSKYQLSEAQLSLIRDIRR [NFE2L1]	not fulfilled
LPPPDPNPPRAEFNYSVGFKDLNE [APBB1IP]	fulfilled
ENKESWDKILALVPETIHDELQQS [PRIM1]	fulfilled
LRAESDFEQLPDDVAISANIADIE [NCF4]	fulfilled
KVKPAEAETAGAIMAFFLCLGLAL [SLC29A1]	not fulfilled
HFAEEERSKYDYLMILRRVVNEST [TENT5C]	not fulfilled
TFSGDVQLAQDDIDGIQAIYGRSQ [MMP1]	fulfilled
IAATELEKEESRREAEKQNYLAEH [TNNI2]	fulfilled
SGVVRIWDLRDQSVVRDLKGYPDG [TLE6]	not fulfilled
YNCGEESLQSCMHFQPNSPASDLE [NANOGP8]	fulfilled
TDDPTAGRSNAPITAPTEVEVMDE [CSNK1G3]	fulfilled
SEASKAFQMEKIEHGYENMNHFTV [TRIM55]	not fulfilled
